tested on: K562; assay: Induction of fetal heamoglobin level in human K562 cells assessed as increase in enhanced GFP expression under the control of gamma-globin promoter at 5 uM after 5 days by flow cytometry; format: functional
reportedEndpoint: fold change (FC)
Could you respond with only the numeric value?

INSERT INTO results (compound, reportedendpoint, observedvalue) VALUES
  ('C=C1CC[C@H]2C(C)(C)C(=O)CC[C@]2(C)[C@H]1/C=C/C1=CCOC1=O [CURCUCOMOSIN A]', 'fold change (FC)', 1),
  ('C=C1CC[C@H]2C(C)(C)CCC[C@]2(C)[C@H]1/C=C/c1ccoc1 [CORONARIN E]', 'fold change (FC)', 0.7),
  ('C=C1CC[C@H]2C(C)(C)[C@@H](O)CC[C@]2(C)[C@H]1/C=C/C1=CCOC1=O [CURCUCOMOSIN B]', 'fold change (FC)', 1),
  ('C=C1CC[C@H]2C(C)(C)CCC[C@]2(C)[C@H]1/C=C/C1=C(O)COC1=O [ZERUMIN]', 'fold change (FC)', 1);

Item under review: C=C1CC[C@H]2C(C)(C)CCC[C@]2(C)[C@H]1/C=C/C1=CCOC1=O [VILLOSIN] . Reported fold change (FC)?
1
